Biological target: T1, IRP1 (iron regulatory protein 1) (rabbit, UniProt Q01059 1-889)
T1 sequence: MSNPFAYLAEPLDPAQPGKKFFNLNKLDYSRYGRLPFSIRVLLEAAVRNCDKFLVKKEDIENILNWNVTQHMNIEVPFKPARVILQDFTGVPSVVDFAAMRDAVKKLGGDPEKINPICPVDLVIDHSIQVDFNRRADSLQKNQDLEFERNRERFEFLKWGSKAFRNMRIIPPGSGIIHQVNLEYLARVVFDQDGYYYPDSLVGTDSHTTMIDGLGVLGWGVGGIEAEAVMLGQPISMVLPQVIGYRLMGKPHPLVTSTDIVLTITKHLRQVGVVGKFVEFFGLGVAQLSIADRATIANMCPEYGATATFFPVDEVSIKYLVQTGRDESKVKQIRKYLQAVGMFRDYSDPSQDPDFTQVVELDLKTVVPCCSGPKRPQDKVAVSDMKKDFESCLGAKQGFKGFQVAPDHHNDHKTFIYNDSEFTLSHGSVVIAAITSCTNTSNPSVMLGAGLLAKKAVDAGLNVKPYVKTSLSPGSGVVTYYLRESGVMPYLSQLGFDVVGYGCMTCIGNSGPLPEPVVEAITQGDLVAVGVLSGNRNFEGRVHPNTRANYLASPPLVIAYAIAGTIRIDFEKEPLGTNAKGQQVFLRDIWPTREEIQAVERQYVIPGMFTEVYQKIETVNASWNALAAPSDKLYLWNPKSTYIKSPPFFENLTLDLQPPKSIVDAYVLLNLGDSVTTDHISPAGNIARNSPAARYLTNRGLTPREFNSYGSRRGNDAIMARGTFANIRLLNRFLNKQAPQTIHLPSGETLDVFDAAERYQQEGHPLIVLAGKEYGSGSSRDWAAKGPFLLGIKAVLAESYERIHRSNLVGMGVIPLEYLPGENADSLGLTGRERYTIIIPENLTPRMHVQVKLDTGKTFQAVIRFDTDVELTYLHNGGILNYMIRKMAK
Experiment: fluorescence anisotropy; 15 °C, no Mn2+; 40 mM HEPES pH 7.2, 100 mM KCl, 5-30 °C, ±50 µM Mn2+; labeled RNA 50 nM or 100 nM (Methods)
Conditions: protein: recombinant; label: 5' fluorescein; hairpin
The following binders are listed with their measured pKd values.
A value of pKd is the negative decimal logarithm of a concentration given in moles per litre.

stdin: Need pKd, item CCUCAUCUUUGUCAGUGCACAAAAUGGCG (structured_RNA) [ACO2 IRE-RNA (mitochondrial aconitase IRE)]
stdout: 7.05

Next, consider the following binder.
stdin: Returns the measured pKd for the input binder. Input: GUUCUUGCUUCAACAGUGUUUGAACGGAAC (structured_RNA) [FRT IRE-RNA (ferritin IRE)]
stdout: 8.07
